Entry source: the RNAGym collection of RNA variant scans (doi:10.7554/elife.80360)

B1: HDV Ribozyme (parent)
chain: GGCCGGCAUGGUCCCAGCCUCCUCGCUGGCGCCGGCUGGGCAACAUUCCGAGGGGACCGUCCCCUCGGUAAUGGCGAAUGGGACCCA

Variants of: B1
Measurement Notes: self-cleavage, relative activity (ratio to wild type); higher = more cleavage; co-transcriptional
Measurement Label: self-cleavage
One number for each entry.

The examples below pair each entry with its known result.
{"Change": "G50U G68C", "Numeric Result": 0.465}
{"Change": "C32A U72A", "Numeric Result": 0.156}
{"Change": "C13G U47A", "Numeric Result": 0}
{"Change": "G10U C14A", "Numeric Result": 0}
{"Change": "G39A G52A", "Numeric Result": 0.405}
{"Change": "C18U G52C", "Numeric Result": 0.774}

For each of the items listed, what is its self-cleavage?
1. G25C C33G
2. G31U C32G
3. C19U C48A
4. U37C G53U
5. G31A U47C
6. U37C G38U

0.201
0.0978
0.117
1.13
0.424
0.0773
